system: CP325; assay: qHTS profiling for inhibitors of Plasmodium falciparum proliferation (AID 504749); note: nearly all actives have a fitted effect of over 60% in size; details: P. falciparum in erythrocytes, SYBR Green DNA, 72 h; series mostly up to 28.7 µM
Inconclusive results are not listed. Activity calls are given as the source filed them. Calls come from the whole dose curve; as a rule, active = well fitted inhibition curve with a large enough effect; inconclusive = small, poorly fitted or top-dose-only effect; inactive = flat fitted curve, though single readings scatter.
I would appreciate it if you answered using one of these outcomes: YES (active), NO (inactive)

Recorded call for O=C(O)COc1nn(Cc2ccccc2)c2ccccc12 ?
NO

Recorded call for O=C(O)c1ccccn1 ?
NO

Recorded call for CCCCCCCCCCCCCCCCCCOCC(O)CO (configuration not stated) ?
NO

Recorded call for C[C@@H]1CN(c2c(F)c(F)c3c(=O)c(C(=O)O)cn(C4CC4)c3c2F)C[C@H](C)N1 ?
NO

Recorded call for CCCCCCCCCCCCOS(=O)(=O)O ?
NO

Recorded call for Nc1ccc(S(=O)(=O)Nc2nccs2)cc1 ?
NO

Recorded call for CC1(C)CO[C@@H](CC(=O)O)CN1 ?
NO

Recorded call for Cc1cccc(Nc2cc(Cl)nc(SCC(=O)O)n2)c1C ?
NO

Recorded call for CCOC(=O)[C@H](CCc1ccccc1)N[C@@H](C)C(=O)N1C(=O)N(C)C[C@H]1C(=O)O ?
NO

Recorded call for CN1CCCCC1CCN1c2ccccc2Sc2ccc(S(C)=O)cc21 (configuration not stated) ?
NO

Recorded call for CCCCOC(=O)c1ccc(O)cc1 ?
NO

Recorded call for CCN(CC)CCSC(=O)C(c1ccccc1)c1ccccc1 ?
NO

Recorded call for Cn1c(=O)c2c(ncn2CC2OCCO2)n(C)c1=O ?
NO

Recorded call for CCCCC(CC)COC(=O)c1ccccc1O (configuration not stated) ?
NO

Recorded call for CC(C(O)c1ccc(O)cc1)N1CCC(Cc2ccccc2)CC1 (configuration not stated) ?
YES

Recorded call for C[C@](N)(Cc1ccc(O)cc1)C(=O)O ?
NO

Recorded call for Cc1cc(N)c2ccccc2[n+]1CCCCCCCCCC[n+]1c(C)cc(N)c2ccccc21 ?
YES

Recorded call for Nc1ncnc2c1ncn2[C@@H]1O[C@H](CO)[C@@H](O)[C@H]1O ?
NO

Recorded call for CC1(C)[C@@H]2CC[C@@]1(C)C(=O)C2 ?
NO

Recorded call for O=C(O)CC(O)C(=O)O (configuration not stated) ?
NO

Recorded call for C#CCN(C)Cc1ccccc1 ?
NO

Recorded call for CCC(=O)Nc1ccc(O)cc1 ?
NO

Recorded call for O=S(=O)(O)c1cc(I)c(O)c2ncccc12 ?
NO

Recorded call for CC(=O)c1ccc2c(c1)N(CCCN(C)C)c1ccccc1S2 ?
NO

Recorded call for CC(CN1c2ccccc2Sc2ccccc21)N(C)C (configuration not stated) ?
NO

Recorded call for N[C@@H](CSCCCO)C(=O)O ?
NO

Recorded call for O=C(Oc1ccccc1C(=O)O)c1ccccc1O ?
NO

Numbers sourced from PubChem BioAssay (NCATS).
